Each recorded value in this set is attributed to paper PMC10303900.

I'd appreciate it if you could supply melting point values for the items below.

Reference set, count: 3
CCCc1c(OCCNC(=O)c2cc(OC)c(OC)c(OC)c2)ccc2c(=O)cc(-c3cc(OC)c(OC)c(OC)c3)oc12 [Compound 16] :: 196 to 199 °C
CCCc1c(OCCNC(=O)c2cc(OC)c(OC)c(OC)c2)ccc(C(=O)/C=C/c2cc(OC)c(OC)c(OC)c2)c1O [Compound 8] :: 201 to 203 °C
CCCc1c(OCC(=O)O)ccc(C(=O)/C=C/c2cc(OC)c(OC)c(OC)c2)c1O [Compound 11] :: 200 to 202 °C

Item: CCCc1c(OCC(=O)Nc2cc(OC)c(OC)c(OC)c2)ccc2c(=O)cc(-c3cc(OC)c(OC)c(OC)c3)oc12 [Compound 17] | melting point: 195 to 197 °C

###

I'd appreciate it if you could supply SI, selective index (GI50 of HCT116 p53−/−/GI50 of HCT116 p53+/+) values for the items below.
# Tested on: HCT116 p53−/−
# Assay Notes: SRB growth inhibition assay, p53 knocked-out colorectal cells
# Format: cell-based, human
Numbers only.

Hi, could you look up SI, selective index (GI50 of HCT116 p53−/−/GI50 of HCT116 p53+/+) for each item in my list?
1. CCCc1c(OCCNC(=O)OC(C)(C)C)ccc(C(=O)/C=C/c2cc(OC)c(OC)c(OC)c2)c1O
2. CCCc1c(OCC(=O)Nc2cc(OC)c(OC)c(OC)c2)ccc(C(=O)/C=C/c2cc(OC)c(OC)c(OC)c2)c1O
3. CCCc1c(OC)ccc(C(=O)/C=C/c2cc(OC)c(OC)c(OC)c2)c1O [CM-M345 (1), reference compound]
4. CCCc1c(OCCNC(=O)/C=C/c2cc(OC)c(OC)c(OC)c2)ccc(C(=O)/C=C/c2cc(OC)c(OC)c(OC)c2)c1O

[reply]
0.68
1.54
1.31
0.40

###

# Test system: HPAEpiC
# Assay Notes: SRB growth inhibition assay, non-tumor pulmonary alveolar epithelial cells
# Format: cell-based
# Settings: Homo sapiens, Epithelial cell, 48 h
I'd appreciate it if you could supply GI50 values for the items below.

CCCc1c(OC)ccc(C(=O)/C=C/c2cc(OC)c(OC)c(OC)c2)c1O [CM-M345 (1), reference compound] :: 6.1 µM
CCCc1c(OCC(=O)Nc2cc(OC)c(OC)c(OC)c2)ccc(C(=O)/C=C/c2cc(OC)c(OC)c(OC)c2)c1O :: 10.8 µM
CCCc1c(OCCNC(=O)c2cc(OC)c(OC)c(OC)c2)ccc2c(=O)cc(-c3cc(OC)c(OC)c(OC)c3)oc12 :: > 75 µM
COc1cccc2c1C(=O)c1c(O)c3c(c(O)c1C2=O)C[C@@](O)(C(=O)CO)C[C@@H]3O[C@H]1C[C@H](N)[C@H](O)[C@H](C)O1 [Doxorubicin, reference compound] :: 0.091 µM
CCCc1c(OCC(=O)Nc2cc(OC)c(OC)c(OC)c2)ccc2c(=O)cc(-c3cc(OC)c(OC)c(OC)c3)oc12 :: > 75 µM
CCCc1c(OCCNC(=O)OC(C)(C)C)ccc(C(=O)/C=C/c2cc(OC)c(OC)c(OC)c2)c1O :: 9.6 µM
CCCc1c(OCCNC(=O)OC(C)(C)C)ccc2c(=O)cc(-c3cc(OC)c(OC)c(OC)c3)oc12 :: > 75 µM
CCCc1c(OCC(=O)O)ccc(C(=O)/C=C/c2cc(OC)c(OC)c(OC)c2)c1O :: > 75 µM
CCCc1c(OCC(=O)O)ccc2c(=O)cc(-c3cc(OC)c(OC)c(OC)c3)oc12 :: > 75 µM
CCCc1c(OCCNC(=O)c2cc(OC)c(OC)c(OC)c2)ccc(C(=O)/C=C/c2cc(OC)c(OC)c(OC)c2)c1O :: > 75 µM

Hi, could you look up GI50 for each item in my list?
1. CCCc1c(OCCNC(=O)/C=C/c2cc(OC)c(OC)c(OC)c2)ccc(C(=O)/C=C/c2cc(OC)c(OC)c(OC)c2)c1O
2. CCCc1c(OCC(=O)O)ccc(C(=O)/C=C/c2cc(OC)c(OC)c(OC)c2)c1OCC(=O)O
3. CCCc1c(OCCNC(=O)/C=C/c2cc(OC)c(OC)c(OC)c2)ccc2c(=O)cc(-c3cc(OC)c(OC)c(OC)c3)oc12

[reply]
["57.2 µM", "> 75 µM", "> 75 µM"]
